assay target: Tyrosine-protein kinase Fyn (Homo sapiens);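 note: enzymatic inhibition of Fyn kinase activity measured with Poly(Glu:Tyr) as the phosphorylation substrate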; note: in other assays of this panel Not Active means under 50% inhibition at 10 µM
Sequence (P06241 whole entry): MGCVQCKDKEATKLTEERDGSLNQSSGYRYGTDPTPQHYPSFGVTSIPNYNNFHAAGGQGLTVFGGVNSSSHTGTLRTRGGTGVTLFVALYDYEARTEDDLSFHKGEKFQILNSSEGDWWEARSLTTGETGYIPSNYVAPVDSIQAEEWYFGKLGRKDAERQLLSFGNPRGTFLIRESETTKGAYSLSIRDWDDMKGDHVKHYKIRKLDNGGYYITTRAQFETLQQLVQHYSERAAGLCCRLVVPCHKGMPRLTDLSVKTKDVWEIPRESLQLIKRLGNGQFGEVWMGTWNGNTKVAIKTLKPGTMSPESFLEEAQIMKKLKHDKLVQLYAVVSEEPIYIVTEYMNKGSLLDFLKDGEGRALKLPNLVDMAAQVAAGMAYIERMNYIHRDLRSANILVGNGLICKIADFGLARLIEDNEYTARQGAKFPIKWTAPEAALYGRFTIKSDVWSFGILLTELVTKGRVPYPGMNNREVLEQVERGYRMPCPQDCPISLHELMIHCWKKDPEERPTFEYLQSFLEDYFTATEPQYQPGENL
measurement notes: biochemical
Type: cell-based, Insect cells
experimental context: insect cells
measurement label: IC50

> print(dat)
                                   compound  endpoint.value
1  COc1cc2nc(N3CCN(C(=O)C4COc5ccccc5O4)CC3)nc(N)c2cc1OC (stereo not drawn)      Not Active
2                 Nc1nc2ccc(OC(F)(F)F)cc2s1      Not Active
3  CC(=O)[C@@]1(O)CC[C@H]2[C@@H]3C[C@H](C)C4=CC(=O)CC[C@]4(C)[C@H]3CC[C@@]21C      Not Active

###

assay target: Alpha-1A adrenergic receptor (Rattus norvegicus, UniProt P43140)
Sequence (P43140 whole entry): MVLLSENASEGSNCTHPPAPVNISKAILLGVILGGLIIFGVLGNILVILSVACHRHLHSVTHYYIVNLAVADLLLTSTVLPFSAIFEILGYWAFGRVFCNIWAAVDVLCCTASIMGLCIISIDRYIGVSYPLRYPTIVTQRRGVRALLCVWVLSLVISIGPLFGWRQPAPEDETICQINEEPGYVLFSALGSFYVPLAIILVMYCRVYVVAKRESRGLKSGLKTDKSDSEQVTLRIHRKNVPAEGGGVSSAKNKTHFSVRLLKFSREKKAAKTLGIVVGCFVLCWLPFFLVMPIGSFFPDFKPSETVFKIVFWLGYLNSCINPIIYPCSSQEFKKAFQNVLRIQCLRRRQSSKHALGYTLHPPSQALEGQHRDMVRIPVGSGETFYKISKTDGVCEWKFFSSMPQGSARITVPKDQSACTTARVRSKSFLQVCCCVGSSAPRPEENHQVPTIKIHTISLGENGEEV
measurement notes: DRUGMATRIX: Alpha-1A adrenergic receptor radioligand binding (ligand: prazosin)
Format: cell membranes, Wistar, Submaxillary gland, Membrane
experimental context: Not Active = under 50% inhibition at 10 µM
measurement label: IC50

compound string	endpoint value
CCOc1ccc(NC(C)=O)cc1	Not Active
Cc1c(C)c2c(c(C)c1O)CC[C@@](C)(CCC[C@H](C)CCC[C@H](C)CCCC(C)C)O2	Not Active
CC[C@]1(O)C[C@H]2CN(CCc3c([nH]c4ccccc34)[C@@](C(=O)OC)(c3cc4c(cc3OC)N(C=O)[C@H]3[C@@](O)(C(=O)OC)[C@H](OC(C)=O)[C@]5(CC)C=CCN6CC[C@]43[C@@H]65)C2)C1	Not Active

###

assay target: Endothelin-1 receptor (Homo sapiens); note: in other assays of this panel Not Active means under 50% inhibition at 10 µM
Sequence (P25101 whole entry): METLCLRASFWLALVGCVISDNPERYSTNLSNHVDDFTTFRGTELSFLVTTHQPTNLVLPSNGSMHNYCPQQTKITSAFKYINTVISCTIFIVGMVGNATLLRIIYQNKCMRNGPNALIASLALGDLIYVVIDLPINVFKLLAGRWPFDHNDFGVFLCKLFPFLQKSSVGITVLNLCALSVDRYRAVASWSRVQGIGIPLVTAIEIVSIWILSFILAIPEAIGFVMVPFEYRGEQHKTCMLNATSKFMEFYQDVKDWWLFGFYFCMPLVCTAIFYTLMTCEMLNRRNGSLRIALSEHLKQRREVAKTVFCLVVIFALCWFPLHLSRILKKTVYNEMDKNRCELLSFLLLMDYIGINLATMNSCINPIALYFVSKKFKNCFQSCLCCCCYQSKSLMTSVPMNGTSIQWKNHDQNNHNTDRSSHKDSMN
Type: cell membranes, CHO-K1, Membrane
experimental context: cho-k1
measurement label: IC50

Worked set:
compound	assay target	IC50
Cc1c(C)c2c(c(C)c1O)CC[C@@](C)(CCC[C@H](C)CCC[C@H](C)CCCC(C)C)O2	Endothelin-1 receptor (Homo sapiens)	Not Active
O=c1ncn2nc(Sc3ccc(F)cc3F)ccc2c1-c1c(Cl)cccc1Cl	Endothelin-1 receptor (Homo sapiens)	Not Active
CCOC(=O)N1CCC(=C2c3ccc(Cl)cc3CCc3cccnc32)CC1	Endothelin-1 receptor (Homo sapiens)	Not Active
CC(C)C(Br)C(=O)NC(N)=O (configuration not stated)	Endothelin-1 receptor (Homo sapiens)	Not Active
CC1CC(OC(=O)C(O)c2ccccc2)CC(C)(C)C1 (configuration not stated) [CYCLANDELATE]	Endothelin-1 receptor (Homo sapiens)	Not Active

Input line: Query (compound): CO[C@H]1/C=C/O[C@@]2(C)Oc3c(C)c(O)c4c(O)c(c(/C=N/N5CCN(C)CC5)c(O)c4c3C2=O)NC(=O)/C(C)=C\C=C\[C@H](C)[C@H](O)[C@@H](C)[C@@H](O)[C@@H](C)[C@H](OC(C)=O)[C@@H]1C ; field requested: IC50
Output line: Not Active

Input line: // query IC50 value for entry CC(C)(Oc1ccc(Cl)cc1)C(=O)O
Output line: Not Active

Input line: What measured IC50 goes with CC1(C)O[C@@H]2C[C@H]3[C@@H]4CCC5=CC(=O)CC[C@]5(C)[C@@]4(F)[C@@H](O)C[C@]3(C)[C@]2(C(=O)CCl)O1 [HALCINONIDE] ?
Output line: Not Active

Input line: For N[C@@H](Cc1ccc(N(CCCl)CCCl)cc1)C(=O)O , what is its reported IC50?
Output line: Not Active

Input line: Would you kindly share the measured IC50 for O=C(O)CCCc1ccc(N(CCCl)CCCl)cc1 ?
Output line: Not Active

###

assay target: Mu-type opioid receptor (Homo sapiens, UniProt P35372)
Sequence (P35372 whole entry): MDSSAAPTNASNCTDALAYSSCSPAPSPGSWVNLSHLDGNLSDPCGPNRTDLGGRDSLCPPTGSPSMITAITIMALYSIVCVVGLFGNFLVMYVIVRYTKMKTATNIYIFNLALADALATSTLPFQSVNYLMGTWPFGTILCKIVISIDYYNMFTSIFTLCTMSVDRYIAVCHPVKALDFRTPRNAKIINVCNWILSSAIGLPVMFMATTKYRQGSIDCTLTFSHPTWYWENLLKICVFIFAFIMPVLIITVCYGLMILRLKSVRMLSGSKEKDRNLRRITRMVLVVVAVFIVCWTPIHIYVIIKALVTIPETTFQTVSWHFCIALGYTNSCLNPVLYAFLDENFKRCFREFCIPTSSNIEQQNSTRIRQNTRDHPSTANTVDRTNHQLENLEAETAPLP
measurement notes: DRUGMATRIX: Opiate mu (OP3, MOP) radioligand binding (ligand: [3H] Diprenorphine)
Type: cell membranes, CHO-K1, Membrane
experimental context: cho-k1; Not Active = under 50% inhibition at 10 µM
measurement label: IC50

compound	IC50
CCC1(c2ccc(N)cc2)CCC(=O)NC1=O (configuration not stated) [AMINOGLUTETHIMIDE]	Not Active
Cc1c(O)c(=O)ccn1C	Not Active
c1ccc(Nc2ccc(Nc3ccccc3)cc2)cc1	Not Active
CCOC(=O)C1=C(COCCN)NC(C)=C(C(=O)OC)C1c1ccccc1Cl (configuration not stated)	Not Active
CCC(C)n1ncn(-c2ccc(N3CCN(c4ccc(OCC5COC(Cn6cncn6)(c6ccc(Cl)cc6Cl)O5)cc4)CC3)cc2)c1=O (configuration not stated)	Not Active

Input line: Kindly state the measured IC50 obtained for Cc1ccc(-c2cc(C(F)(F)F)nn2-c2ccc(S(N)(=O)=O)cc2)cc1 with Mu-type opioid receptor (Homo sapiens, UniProt P35372).
Output line: Not Active

Input line: API: value(readout= IC50, system= Mu-type opioid receptor (Homo sapiens, UniProt P35372), query= CCCOc1ccccc1-c1nc2nn[nH]c2c(=O)[nH]1 )
Output line: Not Active

Input line: // fetch Mu-type opioid receptor (Homo sapiens, UniProt P35372) IC50 for CCOC(=O)N1CCC(=C2c3ccc(Cl)cc3CCc3cccnc32)CC1
Output line: Not Active

Input line: Form field - read-out: IC50; system: Mu-type opioid receptor (Homo sapiens, UniProt P35372); submitted item: COc1nc(C)nc(Cl)c1NC1=NCCN1
Output line: Not Active

Input line: So what IC50 did CC(=O)O[C@@]12CO[C@@H]1C[C@H](O)[C@@]1(C)C(=O)[C@H](O)C3=C(C)[C@@H](OC(=O)[C@H](O)[C@@H](NC(=O)OC(C)(C)C)c4ccccc4)C[C@@](O)([C@@H](OC(=O)c4ccccc4)[C@H]21)C3(C)C.O.O.O get with Mu-type opioid receptor (Homo sapiens, UniProt P35372)?
Output line: Not Active

Input line: Record lookup: for Mu-type opioid receptor (Homo sapiens, UniProt P35372), what IC50 belongs to OCCN(CCO)c1nc(N2CCCCC2)c2nc(N(CCO)CCO)nc(N3CCCCC3)c2n1 ?
Output line: Not Active

Input line: Query IC50 on Mu-type opioid receptor (Homo sapiens, UniProt P35372) for CC(C)C(=O)Nc1ccc([N+](=O)[O-])c(C(F)(F)F)c1 [FLUTAMIDE]
Output line: Not Active

Input line: API: value(readout=IC50, system=Mu-type opioid receptor (Homo sapiens, UniProt P35372)) for record CC(C)[C@H]1C(=O)N2CCC[C@H]2[C@]2(O)O[C@](NC(=O)[C@@H]3C=C4c5cccc6[nH]cc(c56)C[C@H]4N(C)C3)(C(C)C)C(=O)N12
Output line: Not Active

###

measurement notes: DRUGMATRIX: Calcium Channel Type L, Benzothiazepine radioligand binding (ligand: [3H] Diltiazem)
Type: cell membranes, Rattus norvegicus, Wistar, Brain, Membrane
experimental context: Not Active = under 50% inhibition at 10 µM; read-out: IC50
measurement label: pIC50
Reminder that pIC50 means the negative base-10 logarithm of the concentration expressed in mol/L.

> print(dat)
                                   molecule  endpoint.value
1  C1CCC(C(CC2CCCCN2)C2CCCCC2)CC1 (configuration not stated) [PERHEXILINE]            5.98

Input line: Returns the measured pIC50 for the input molecule. Input: CCOC(=O)C1=C(COCCN)NC(C)=C(C(=O)OC)C1c1ccccc1Cl (configuration not stated) [AMLODIPINE]
Output line: 7.00

Input line: # pIC50 lookup, item CN(C)CCCN1c2ccccc2Sc2ccc(Cl)cc21 [CHLORPROMAZINE]
Output line: 5.49

Input line: Returns the measured pIC50 for the input molecule. Input: CCCN1C[C@H](CSC)C[C@@H]2c3cccc4[nH]cc(c34)C[C@H]21 [PERGOLIDE]
Output line: 5.48

Input line: Tell me the measured pIC50 of CN(C)CCCN1c2ccccc2Sc2ccccc21 [PROMAZINE] , please.
Output line: 5.49

Input line: For CC(C)N1CCN(c2ccc(OCC3COC(Cn4cncn4)(c4ccc(Cl)cc4Cl)O3)cc2)CC1 (configuration not stated) [TERCONAZOLE] , what is its reported pIC50?
Output line: 5.52

Input line: Need pIC50, item CC(C)(C)NC(=O)[C@@H]1C[C@@H]2CCCC[C@@H]2CN1C[C@@H](O)[C@H](Cc1ccccc1)NC(=O)[C@H](CC(N)=O)NC(=O)c1ccc2ccccc2n1
Output line: 4.96

###

assay target: Cytochrome P450 3A4 (Homo sapiens); note: in other assays of this panel Not Active means under 50% inhibition at 10 µM
Sequence (P08684 whole entry): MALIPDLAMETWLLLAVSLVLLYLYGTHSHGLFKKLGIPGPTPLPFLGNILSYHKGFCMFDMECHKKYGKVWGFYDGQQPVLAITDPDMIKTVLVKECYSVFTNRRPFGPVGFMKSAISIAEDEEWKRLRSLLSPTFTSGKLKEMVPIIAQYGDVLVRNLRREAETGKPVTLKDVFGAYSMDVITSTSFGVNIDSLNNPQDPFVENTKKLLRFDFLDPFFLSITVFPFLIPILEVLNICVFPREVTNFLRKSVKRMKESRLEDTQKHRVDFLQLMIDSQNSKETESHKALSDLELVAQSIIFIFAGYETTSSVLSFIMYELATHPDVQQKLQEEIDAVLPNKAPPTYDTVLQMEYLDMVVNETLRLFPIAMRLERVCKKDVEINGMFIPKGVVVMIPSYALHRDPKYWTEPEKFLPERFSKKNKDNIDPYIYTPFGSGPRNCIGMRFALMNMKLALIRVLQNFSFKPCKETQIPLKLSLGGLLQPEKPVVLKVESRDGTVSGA
experimental context: bti-tn-5b1-4
measurement label: Ki

> print(dat)
                                   molecule  endpoint.value
1                 CNNCc1ccc(C(=O)NC(C)C)cc1      Not Active
2  CCCN1C[C@H](CSC)C[C@@H]2c3cccc4[nH]cc(c34)C[C@H]21 [PERGOLIDE]      Not Active
3  CC(=O)[C@@]1(O)CC[C@H]2[C@@H]3C[C@H](C)C4=CC(=O)CC[C@]4(C)[C@H]3CC[C@@]21C      Not Active
